Molecular target: AURKC (human) (UniProt Q9UQB9)
Test: Caliper, Mobility shift assay off-chip
Conditions: compound 0.02 µM
experimentalReadout: inhibition (%)

a: CNC(=O)c1cc(Oc2ccc(NC(=O)Nc3ccc(Cl)c(C(F)(F)F)c3)cc2)ccn1
b: COc1cc2c(Oc3ccc4[nH]c(C)cc4c3F)ncnc2cc1OCCCN1CCCC1
c: Cc1ccc(Nc2nccc(N(C)c3ccc4c(C)n(C)nc4c3)n2)cc1S(N)(=O)=O
d: CNC(=O)c1ccccc1Sc1ccc2c(/C=C/c3ccccn3)n[nH]c2c1
Sort the entries above by inhibition, smallest first. List the labels according to the requested ordering.
b, c, a, d
(b: -4.3%, c: -0.4%, a: 0%, d: 42.3%)

---

Biological target: MAPK3 (human)
Assay: Caliper, Mobility shift assay off-chip
Details: compound 0.2 µM
experimentalReadout: inhibition (%)

| recordSmiles | unitText | inhibition |
| --- | --- | --- |
| COc1cc2c(Oc3ccc4[nH]c(C)cc4c3F)ncnc2cc1OCCCN1CCCC1 | % | -5 |
| CCN(CC)CCNC(=O)c1c(C)[nH]c(/C=C2\C(=O)Nc3ccc(F)cc32)c1C | % | -4.8 |

a: Cc1ccc(Nc2nccc(N(C)c3ccc4c(C)n(C)nc4c3)n2)cc1S(N)(=O)=O
b: CNC(=O)c1cc(Oc2ccc(NC(=O)Nc3ccc(Cl)c(C(F)(F)F)c3)cc2)ccn1
# query: argmin of inhibition over a and b Let me know the label of the one you choose.
a

---

Target: UniProtKB O94806
Experiment: Caliper, Mobility shift assay off-chip
Settings: compound 0.2 µM
experimentalReadout: inhibition (%)

a: CCN(CC)CCNC(=O)c1c(C)[nH]c(/C=C2\C(=O)Nc3ccc(F)cc32)c1C
b: Cc1ccc(Nc2nccc(N(C)c3ccc4c(C)n(C)nc4c3)n2)cc1S(N)(=O)=O
c: CNC(=O)c1cc(Oc2ccc(NC(=O)Nc3ccc(Cl)c(C(F)(F)F)c3)cc2)ccn1
d: COc1cc2c(Oc3ccc4[nH]c(C)cc4c3F)ncnc2cc1OCCCN1CCCC1
Descending by inhibition please, for everything listed above. List the labels according to the requested ordering.
a, b, d, c

---

Target: MINK1 (human)
Experiment: Caliper, Mobility shift assay off-chip
Conditions: compound 0.02 µM
experimentalReadout: inhibition (%)

a: Cc1ccc(Nc2nccc(N(C)c3ccc4c(C)n(C)nc4c3)n2)cc1S(N)(=O)=O
b: COc1cc2c(Oc3ccc4[nH]c(C)cc4c3F)ncnc2cc1OCCCN1CCCC1
c: CNC(=O)c1ccccc1Sc1ccc2c(/C=C/c3ccccn3)n[nH]c2c1
d: CNC(=O)c1cc(Oc2ccc(NC(=O)Nc3ccc(Cl)c(C(F)(F)F)c3)cc2)ccn1
Descending by inhibition please, for everything listed above. List the labels according to the requested ordering.
b, a, c, d

---

Target: UniProt Q12866
Sequence (Q12866 whole entry, looked up): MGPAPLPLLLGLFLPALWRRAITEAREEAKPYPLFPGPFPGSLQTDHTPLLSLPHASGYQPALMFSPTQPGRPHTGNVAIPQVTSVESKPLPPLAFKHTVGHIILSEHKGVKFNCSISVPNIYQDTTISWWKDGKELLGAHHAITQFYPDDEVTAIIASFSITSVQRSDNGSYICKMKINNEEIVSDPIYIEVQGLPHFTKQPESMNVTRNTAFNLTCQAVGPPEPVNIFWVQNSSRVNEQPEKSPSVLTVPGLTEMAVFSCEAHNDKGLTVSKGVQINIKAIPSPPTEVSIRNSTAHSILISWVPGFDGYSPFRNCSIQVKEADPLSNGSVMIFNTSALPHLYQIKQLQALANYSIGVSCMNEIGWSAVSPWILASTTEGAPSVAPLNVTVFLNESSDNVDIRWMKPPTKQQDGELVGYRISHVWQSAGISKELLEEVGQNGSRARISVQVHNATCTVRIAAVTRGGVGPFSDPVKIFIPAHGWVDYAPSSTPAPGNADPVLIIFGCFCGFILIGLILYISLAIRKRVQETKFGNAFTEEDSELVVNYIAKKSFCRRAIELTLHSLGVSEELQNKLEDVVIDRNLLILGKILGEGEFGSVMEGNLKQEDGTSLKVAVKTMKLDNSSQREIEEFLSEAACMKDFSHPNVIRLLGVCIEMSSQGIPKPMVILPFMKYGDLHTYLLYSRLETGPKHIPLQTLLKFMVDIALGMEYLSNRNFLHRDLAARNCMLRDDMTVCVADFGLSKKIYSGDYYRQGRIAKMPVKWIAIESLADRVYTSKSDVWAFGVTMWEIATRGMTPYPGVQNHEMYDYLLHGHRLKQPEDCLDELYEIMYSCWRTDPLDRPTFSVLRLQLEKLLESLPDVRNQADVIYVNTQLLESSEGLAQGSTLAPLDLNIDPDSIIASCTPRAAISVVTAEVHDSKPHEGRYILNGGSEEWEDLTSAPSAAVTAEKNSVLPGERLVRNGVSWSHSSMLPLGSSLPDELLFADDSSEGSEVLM
Experiment: Caliper, Mobility shift assay off-chip
Details: compound 0.2 µM
experimentalReadout: inhibition (%)

A: Cc1ccc(Nc2nccc(N(C)c3ccc4c(C)n(C)nc4c3)n2)cc1S(N)(=O)=O
B: COc1cc2c(Oc3ccc4[nH]c(C)cc4c3F)ncnc2cc1OCCCN1CCCC1
C: CNC(=O)c1cc(Oc2ccc(NC(=O)Nc3ccc(Cl)c(C(F)(F)F)c3)cc2)ccn1
D: CCN(CC)CCNC(=O)c1c(C)[nH]c(/C=C2\C(=O)Nc3ccc(F)cc32)c1C
Descending by inhibition please, for everything listed above. List the labels according to the requested ordering.
D, A, C, B
(D: 96%, A: 15.6%, C: 10.2%, B: 5.9%)

---

Target: GSG2 (human) (UniProt Q8TF76)
Assay: Caliper, Mobility shift assay off-chip
Conditions: compound 0.2 µM
experimentalReadout: inhibition (%)

Consider the reported inhibition for these compounds:
| recordSmiles | testedTarget | inhibition [%] |
| --- | --- | --- |
| CCN(CC)CCNC(=O)c1c(C)[nH]c(/C=C2\C(=O)Nc3ccc(F)cc32)c1C | GSG2 (human) (UniProt Q8TF76) | 39.2 |
| CNC(=O)c1cc(Oc2ccc(NC(=O)Nc3ccc(Cl)c(C(F)(F)F)c3)cc2)ccn1 | GSG2 (human) (UniProt Q8TF76) | -1.8 |

A: Cc1ccc(Nc2nccc(N(C)c3ccc4c(C)n(C)nc4c3)n2)cc1S(N)(=O)=O
B: COc1cc2c(Oc3ccc4[nH]c(C)cc4c3F)ncnc2cc1OCCCN1CCCC1
# query: argmin of inhibition over A and B Let me know the label of the one you choose.
B
(B: -0.4%, A: 4.3%)

---

Biological target: MAP3K1 (human) (UniProt Q13233)
Sequence (Q13233 whole entry, looked up): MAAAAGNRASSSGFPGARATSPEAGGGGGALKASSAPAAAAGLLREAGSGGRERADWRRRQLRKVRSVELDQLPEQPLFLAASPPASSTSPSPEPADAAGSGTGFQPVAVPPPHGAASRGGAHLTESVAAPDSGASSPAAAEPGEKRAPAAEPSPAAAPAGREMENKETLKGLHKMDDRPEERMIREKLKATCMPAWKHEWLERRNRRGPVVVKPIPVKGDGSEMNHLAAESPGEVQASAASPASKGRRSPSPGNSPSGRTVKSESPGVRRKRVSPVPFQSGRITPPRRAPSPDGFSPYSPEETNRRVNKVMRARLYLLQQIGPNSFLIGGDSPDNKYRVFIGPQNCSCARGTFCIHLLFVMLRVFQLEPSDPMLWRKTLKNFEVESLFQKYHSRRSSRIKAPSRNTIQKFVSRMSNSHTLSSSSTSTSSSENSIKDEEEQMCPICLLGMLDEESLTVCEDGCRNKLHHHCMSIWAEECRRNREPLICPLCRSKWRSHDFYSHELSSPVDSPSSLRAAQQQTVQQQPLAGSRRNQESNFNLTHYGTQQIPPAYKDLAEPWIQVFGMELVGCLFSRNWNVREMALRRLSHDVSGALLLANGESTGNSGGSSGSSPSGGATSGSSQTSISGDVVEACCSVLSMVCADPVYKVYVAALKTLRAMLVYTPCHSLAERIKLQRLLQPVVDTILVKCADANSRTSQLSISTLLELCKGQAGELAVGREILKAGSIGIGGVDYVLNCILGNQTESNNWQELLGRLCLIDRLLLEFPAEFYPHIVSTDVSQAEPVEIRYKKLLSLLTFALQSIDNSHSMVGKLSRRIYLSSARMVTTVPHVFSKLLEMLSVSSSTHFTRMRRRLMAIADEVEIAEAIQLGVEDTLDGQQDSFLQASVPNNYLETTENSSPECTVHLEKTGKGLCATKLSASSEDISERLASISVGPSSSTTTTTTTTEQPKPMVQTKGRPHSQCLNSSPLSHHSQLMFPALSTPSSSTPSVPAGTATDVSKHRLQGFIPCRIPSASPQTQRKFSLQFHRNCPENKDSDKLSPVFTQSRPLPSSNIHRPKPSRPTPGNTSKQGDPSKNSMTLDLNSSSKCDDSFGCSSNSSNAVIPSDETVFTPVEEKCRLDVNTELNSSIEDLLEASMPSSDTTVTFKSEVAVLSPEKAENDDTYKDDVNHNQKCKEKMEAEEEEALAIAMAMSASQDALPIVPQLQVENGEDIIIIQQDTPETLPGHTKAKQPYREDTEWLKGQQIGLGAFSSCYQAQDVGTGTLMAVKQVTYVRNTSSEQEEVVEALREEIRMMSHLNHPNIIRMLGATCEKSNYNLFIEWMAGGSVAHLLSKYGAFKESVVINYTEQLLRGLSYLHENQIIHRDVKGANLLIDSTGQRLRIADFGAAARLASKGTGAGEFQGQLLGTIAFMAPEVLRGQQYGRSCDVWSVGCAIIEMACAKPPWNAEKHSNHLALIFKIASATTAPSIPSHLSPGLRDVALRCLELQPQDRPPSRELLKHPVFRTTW
Experiment: ELISA
Details: compound 0.2 µM
experimentalReadout: inhibition (%)

A: Cc1ccc(Nc2nccc(N(C)c3ccc4c(C)n(C)nc4c3)n2)cc1S(N)(=O)=O
B: CCN(CC)CCNC(=O)c1c(C)[nH]c(/C=C2\C(=O)Nc3ccc(F)cc32)c1C
# query: argmin of inhibition over A and B Let me know the label of the one you choose.
A
(A: 3.7%, B: 15.9%)

P: COc1cc2c(Oc3ccc4[nH]c(C)cc4c3F)ncnc2cc1OCCCN1CCCC1
Q: CNC(=O)c1cc(Oc2ccc(NC(=O)Nc3ccc(Cl)c(C(F)(F)F)c3)cc2)ccn1
Could you please tell me which of these two has the higher inhibition: P or Q ? Let me know the label of the one you choose.
Q
(Q: -0.2%, P: -1%)

---

Target: ABL2 (human) (UniProt P42684)
Sequence (P42684 whole entry, looked up): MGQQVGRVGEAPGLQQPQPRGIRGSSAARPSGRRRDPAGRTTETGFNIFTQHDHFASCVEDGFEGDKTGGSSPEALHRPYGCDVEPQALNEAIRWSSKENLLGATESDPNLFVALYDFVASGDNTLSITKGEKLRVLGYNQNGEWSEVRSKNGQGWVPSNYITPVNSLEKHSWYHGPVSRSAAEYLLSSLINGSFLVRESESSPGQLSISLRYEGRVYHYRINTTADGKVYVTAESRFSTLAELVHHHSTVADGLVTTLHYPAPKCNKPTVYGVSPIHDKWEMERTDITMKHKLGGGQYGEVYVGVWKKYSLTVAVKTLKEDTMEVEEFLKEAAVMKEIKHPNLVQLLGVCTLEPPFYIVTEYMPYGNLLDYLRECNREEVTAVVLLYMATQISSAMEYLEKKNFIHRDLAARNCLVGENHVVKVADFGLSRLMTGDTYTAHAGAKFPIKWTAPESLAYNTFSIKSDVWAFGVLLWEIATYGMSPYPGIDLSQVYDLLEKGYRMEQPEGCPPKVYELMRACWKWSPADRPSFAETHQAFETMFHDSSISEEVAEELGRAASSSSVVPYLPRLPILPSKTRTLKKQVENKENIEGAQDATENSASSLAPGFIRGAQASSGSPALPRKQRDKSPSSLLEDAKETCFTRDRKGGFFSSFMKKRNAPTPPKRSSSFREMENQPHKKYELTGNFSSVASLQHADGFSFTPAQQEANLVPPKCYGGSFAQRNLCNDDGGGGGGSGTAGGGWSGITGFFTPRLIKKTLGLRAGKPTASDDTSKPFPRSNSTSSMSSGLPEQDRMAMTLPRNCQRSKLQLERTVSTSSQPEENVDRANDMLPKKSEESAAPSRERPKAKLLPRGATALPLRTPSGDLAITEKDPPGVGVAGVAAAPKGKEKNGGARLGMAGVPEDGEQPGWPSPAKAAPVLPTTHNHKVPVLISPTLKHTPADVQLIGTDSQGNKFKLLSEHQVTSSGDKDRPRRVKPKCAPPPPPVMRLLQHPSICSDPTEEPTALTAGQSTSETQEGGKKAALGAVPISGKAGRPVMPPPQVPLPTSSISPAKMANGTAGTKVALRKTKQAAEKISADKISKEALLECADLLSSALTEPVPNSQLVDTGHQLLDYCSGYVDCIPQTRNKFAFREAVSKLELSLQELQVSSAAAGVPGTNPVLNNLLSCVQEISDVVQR
Assay: Caliper, Mobility shift assay off-chip
Details: compound 0.2 µM
experimentalReadout: inhibition (%)

| recordSmiles | unitText | inhibition |
| --- | --- | --- |
| Cc1ccc(Nc2nccc(N(C)c3ccc4c(C)n(C)nc4c3)n2)cc1S(N)(=O)=O | % | 27.6 |
| CNC(=O)c1cc(Oc2ccc(NC(=O)Nc3ccc(Cl)c(C(F)(F)F)c3)cc2)ccn1 | % | 3.1 |

1: CCN(CC)CCNC(=O)c1c(C)[nH]c(/C=C2\C(=O)Nc3ccc(F)cc32)c1C
2: COc1cc2c(Oc3ccc4[nH]c(C)cc4c3F)ncnc2cc1OCCCN1CCCC1
# query: argmin of inhibition over 1 and 2 Let me know the label of the one you choose.
1
(1: 13.7%, 2: 34.5%)

---

Molecular target: MAPKAPK3 (human)
Test: Caliper, Mobility shift assay off-chip
Settings: compound 0.2 µM
experimentalReadout: inhibition (%)

A: CCN(CC)CCNC(=O)c1c(C)[nH]c(/C=C2\C(=O)Nc3ccc(F)cc32)c1C
B: COc1cc2c(Oc3ccc4[nH]c(C)cc4c3F)ncnc2cc1OCCCN1CCCC1
C: CNC(=O)c1cc(Oc2ccc(NC(=O)Nc3ccc(Cl)c(C(F)(F)F)c3)cc2)ccn1
Descending by inhibition please, for everything listed above. List the labels according to the requested ordering.
C, A, B
(C: 3.5%, A: 1.2%, B: -0.2%)

---

Target: STK10 (human) (UniProt O94804)
Assay: Caliper, Mobility shift assay off-chip
Conditions: compound 0.2 µM
experimentalReadout: inhibition (%)

| recordSmiles | testedTarget | inhibition [%] |
| --- | --- | --- |
| Cc1ccc(Nc2nccc(N(C)c3ccc4c(C)n(C)nc4c3)n2)cc1S(N)(=O)=O | STK10 (human) (UniProt O94804) | 39.2 |

1: CNC(=O)c1cc(Oc2ccc(NC(=O)Nc3ccc(Cl)c(C(F)(F)F)c3)cc2)ccn1
2: COc1cc2c(Oc3ccc4[nH]c(C)cc4c3F)ncnc2cc1OCCCN1CCCC1
3: CCN(CC)CCNC(=O)c1c(C)[nH]c(/C=C2\C(=O)Nc3ccc(F)cc32)c1C
List by increasing inhibition. List the labels according to the requested ordering.
1, 3, 2

---

Molecular target: CAMK2G (human)
Test: Caliper, Mobility shift assay off-chip
Conditions: compound 0.2 µM
experimentalReadout: inhibition (%)

| recordSmiles | inhibition / % |
| --- | --- |
| Cc1ccc(Nc2nccc(N(C)c3ccc4c(C)n(C)nc4c3)n2)cc1S(N)(=O)=O | 2 |
| COc1cc2c(Oc3ccc4[nH]c(C)cc4c3F)ncnc2cc1OCCCN1CCCC1 | 1.5 |

I: CNC(=O)c1cc(Oc2ccc(NC(=O)Nc3ccc(Cl)c(C(F)(F)F)c3)cc2)ccn1
II: CCN(CC)CCNC(=O)c1c(C)[nH]c(/C=C2\C(=O)Nc3ccc(F)cc32)c1C
Could you please tell me which of these two has the higher inhibition: I or II ? Let me know the label of the one you choose.
II
(II: 49.6%, I: 2%)

---

Molecular target: HIPK3 (human) (UniProt Q9H422)
Sequence (Q9H422 whole entry, looked up): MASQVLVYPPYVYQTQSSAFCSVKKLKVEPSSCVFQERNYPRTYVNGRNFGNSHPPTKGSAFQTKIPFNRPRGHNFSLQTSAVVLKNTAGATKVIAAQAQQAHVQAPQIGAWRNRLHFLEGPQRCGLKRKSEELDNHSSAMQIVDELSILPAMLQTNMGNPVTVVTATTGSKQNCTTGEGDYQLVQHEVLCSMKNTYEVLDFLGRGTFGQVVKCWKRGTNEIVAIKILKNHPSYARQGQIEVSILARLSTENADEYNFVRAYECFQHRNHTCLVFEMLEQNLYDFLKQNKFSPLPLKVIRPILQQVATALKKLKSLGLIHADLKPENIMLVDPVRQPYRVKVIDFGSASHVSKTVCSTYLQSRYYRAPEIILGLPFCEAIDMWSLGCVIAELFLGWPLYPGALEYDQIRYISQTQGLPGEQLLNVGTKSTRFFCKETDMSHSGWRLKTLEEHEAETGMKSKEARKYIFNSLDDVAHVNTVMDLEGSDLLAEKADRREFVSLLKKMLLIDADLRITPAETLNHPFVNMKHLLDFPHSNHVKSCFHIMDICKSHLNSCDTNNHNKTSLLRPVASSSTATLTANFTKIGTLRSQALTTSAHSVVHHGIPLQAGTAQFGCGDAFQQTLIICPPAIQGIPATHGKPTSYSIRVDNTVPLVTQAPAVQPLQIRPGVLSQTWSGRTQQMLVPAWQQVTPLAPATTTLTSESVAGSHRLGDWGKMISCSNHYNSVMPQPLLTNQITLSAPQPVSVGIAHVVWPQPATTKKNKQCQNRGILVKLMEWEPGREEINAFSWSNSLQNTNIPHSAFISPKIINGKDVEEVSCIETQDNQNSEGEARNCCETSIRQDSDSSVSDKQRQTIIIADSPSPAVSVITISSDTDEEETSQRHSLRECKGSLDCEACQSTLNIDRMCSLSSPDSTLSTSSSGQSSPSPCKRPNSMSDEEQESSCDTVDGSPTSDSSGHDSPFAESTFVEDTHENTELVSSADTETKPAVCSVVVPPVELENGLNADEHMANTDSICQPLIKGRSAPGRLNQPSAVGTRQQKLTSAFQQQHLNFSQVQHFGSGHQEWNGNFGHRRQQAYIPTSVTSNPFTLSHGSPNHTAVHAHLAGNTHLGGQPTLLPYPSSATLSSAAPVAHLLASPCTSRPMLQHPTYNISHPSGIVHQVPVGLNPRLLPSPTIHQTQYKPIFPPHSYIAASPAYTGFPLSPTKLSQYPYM
Assay: Caliper, Mobility shift assay off-chip
Conditions: compound 0.02 µM
experimentalReadout: inhibition (%)

| recordSmiles | unitText | inhibition |
| --- | --- | --- |
| CNC(=O)c1ccccc1Sc1ccc2c(/C=C/c3ccccn3)n[nH]c2c1 | % | -1.1 |
| Cc1ccc(Nc2nccc(N(C)c3ccc4c(C)n(C)nc4c3)n2)cc1S(N)(=O)=O | % | 2.3 |

a: COc1cc2c(Oc3ccc4[nH]c(C)cc4c3F)ncnc2cc1OCCCN1CCCC1
b: CNC(=O)c1cc(Oc2ccc(NC(=O)Nc3ccc(Cl)c(C(F)(F)F)c3)cc2)ccn1
# query: argmin of inhibition over a and b Let me know the label of the one you choose.
a
